Test target: Integrin alpha-IIb/beta-3 (Homo sapiens, UniProt P05106+P08514)
Sequence (P05106 27-788 limits assumed): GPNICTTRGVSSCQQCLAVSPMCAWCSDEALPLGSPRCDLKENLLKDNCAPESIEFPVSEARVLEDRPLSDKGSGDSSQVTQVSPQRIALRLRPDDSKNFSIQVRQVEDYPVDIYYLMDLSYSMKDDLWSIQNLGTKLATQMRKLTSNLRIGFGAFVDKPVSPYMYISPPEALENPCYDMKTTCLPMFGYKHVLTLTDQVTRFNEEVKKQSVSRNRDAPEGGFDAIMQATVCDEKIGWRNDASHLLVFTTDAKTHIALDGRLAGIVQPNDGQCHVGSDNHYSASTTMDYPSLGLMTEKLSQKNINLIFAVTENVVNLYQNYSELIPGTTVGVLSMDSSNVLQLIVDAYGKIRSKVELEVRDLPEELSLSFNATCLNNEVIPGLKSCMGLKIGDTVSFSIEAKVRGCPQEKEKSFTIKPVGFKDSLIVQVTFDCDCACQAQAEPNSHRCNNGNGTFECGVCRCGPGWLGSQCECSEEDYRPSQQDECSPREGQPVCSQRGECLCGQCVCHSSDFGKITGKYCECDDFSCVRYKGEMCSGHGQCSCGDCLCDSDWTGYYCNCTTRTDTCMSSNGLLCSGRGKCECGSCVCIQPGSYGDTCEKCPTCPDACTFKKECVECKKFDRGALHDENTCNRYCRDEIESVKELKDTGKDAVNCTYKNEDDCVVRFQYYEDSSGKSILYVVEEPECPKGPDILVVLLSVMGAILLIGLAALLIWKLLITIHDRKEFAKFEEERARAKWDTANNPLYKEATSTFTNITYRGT
Sequence (P08514 32-887 limits assumed): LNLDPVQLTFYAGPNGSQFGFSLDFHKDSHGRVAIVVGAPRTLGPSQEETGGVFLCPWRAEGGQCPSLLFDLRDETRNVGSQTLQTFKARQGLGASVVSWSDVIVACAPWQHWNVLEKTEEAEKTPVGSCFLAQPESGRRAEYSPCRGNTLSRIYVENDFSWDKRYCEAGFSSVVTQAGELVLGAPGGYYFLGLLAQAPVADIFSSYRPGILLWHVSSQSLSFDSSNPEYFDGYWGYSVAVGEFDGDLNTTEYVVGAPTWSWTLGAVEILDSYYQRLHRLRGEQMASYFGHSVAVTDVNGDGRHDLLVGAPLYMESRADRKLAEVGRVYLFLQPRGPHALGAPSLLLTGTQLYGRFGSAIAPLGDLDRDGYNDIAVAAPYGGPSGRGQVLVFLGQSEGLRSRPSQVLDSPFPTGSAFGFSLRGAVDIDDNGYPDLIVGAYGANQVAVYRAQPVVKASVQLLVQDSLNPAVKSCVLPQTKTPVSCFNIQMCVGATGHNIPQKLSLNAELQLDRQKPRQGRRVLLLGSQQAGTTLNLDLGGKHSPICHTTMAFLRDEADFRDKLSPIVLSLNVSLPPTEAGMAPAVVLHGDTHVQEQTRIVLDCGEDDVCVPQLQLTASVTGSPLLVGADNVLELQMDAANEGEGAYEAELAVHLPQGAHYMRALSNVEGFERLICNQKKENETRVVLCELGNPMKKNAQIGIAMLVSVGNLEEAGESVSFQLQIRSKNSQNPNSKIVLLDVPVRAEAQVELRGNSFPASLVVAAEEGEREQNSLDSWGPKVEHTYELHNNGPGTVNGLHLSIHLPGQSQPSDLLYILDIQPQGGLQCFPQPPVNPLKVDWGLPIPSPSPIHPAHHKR
Sequence (P08514 891-1039 limits assumed): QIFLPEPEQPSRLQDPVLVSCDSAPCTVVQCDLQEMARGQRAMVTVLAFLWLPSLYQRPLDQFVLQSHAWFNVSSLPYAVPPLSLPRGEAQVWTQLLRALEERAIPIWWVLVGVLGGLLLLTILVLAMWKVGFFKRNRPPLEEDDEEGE
Experimental protocol: Binding affinity to human fibrinogen receptor
Record form. Attribute: log10(IC50). Fill in for each entry.
Use the decimal logarithm of IC50 (nM).

Summary for this molecule, CCOC(=O)CC1CCN(C(=O)C(C)(C)C(CC)NC(=O)c2ccc(C(=N)N3CCSC3)cc2F)CC1 (stereo unspecified) : log10(IC50) is 0.36

// field: log10(IC50); key: CC(NC(=O)c1ccc(C(=N)N)cc1F)C(C)(C)C(=O)N1CCC(CC(=O)O)CC1 (stereo unspecified) ; value = 0.63

Lab note: CCCCCC(NC(=O)c1ccc(C(=N)N)cc1)C(C)(C)C(=O)N1CCC(CC(=O)O)CC1 (stereo unspecified) gave log10(IC50) of 1.35

Consider CCCCC(NC(=O)c1ccc(C(=N)N)cc1)C(C)(C)C(=O)N1CCC(CC(=O)O)CC1 (stereo unspecified) . Its measured log10(IC50) is 0.58

Recorded log10(IC50) (molecule CC(C)(C(=O)N1CCC(CC(=O)O)CC1)C(NC(=O)c1ccc(C(=N)N)cc1)c1cccc(Cl)c1 (stereo unspecified) ): 1.50

// sample CC(C)(C(=O)N1CCC(CC(=O)O)CC1)C(NC(=O)c1ccc(C(=N)N)cc1)c1cccc(O)c1 (stereo unspecified) , its log10(IC50) was 0.41

molecule CCOC(=O)CC1CCN(C(=O)C(C)(C)C(CC)NC(=O)c2ccc(C(=N)N3CCN(C)CC3)cc2F)CC1 (stereo unspecified) , log10(IC50) observed: 0.73

So for CC(C)(CNC(=O)c1ccc(C(=N)N)cc1)C(=O)N1CCC(CC(=O)O)CC1 , the logged log10(IC50) turned out to be 2.10

Record summary for CC(C)(C(=O)N1CCC(CC(=O)O)CC1)C(NC(=O)c1ccc(C(=N)N)cc1)c1ccc(O)cc1 (stereo unspecified) : reported log10(IC50) = 1.37

So for CCOC(=O)CC1CCN(C(=O)C(C)(C)C(CC)NC(=O)c2ccc(C(=N)N)cc2F)CC1 (stereo unspecified) , the logged log10(IC50) turned out to be 0.43

Data point: CCOC(=O)CC1CCN(C(=O)C(C)(C)C(CC)NC(=O)c2ccc(C(=N)N3CCC(O)CC3)cc2F)CC1 (stereo unspecified) ; log10(IC50) = 0.76

Reported log10(IC50) ( CC(C)(C(=O)N1CCC(CC(=O)O)CC1)C(NC(=O)c1ccc(C(=N)N)cc1)c1ccc(Cl)cc1 (stereo unspecified) ) = 1.54

Sure, the documented log10(IC50) for CC(C)C(NC(=O)c1ccc(C(=N)N)cc1)C(C)(C)C(=O)N1CCC(CC(=O)O)CC1 (stereo unspecified) is 0.93

Entry CC(C)(C(=O)N1CCC(CC(=O)O)CC1)C(NC(=O)c1ccc(C(=N)N)cc1Cl)c1ccccc1 (stereo unspecified) ; log10(IC50) = 1.44

CC(C)(C(=O)N1CCC(CC(=O)O)CC1)C(NC(=O)c1ccc(C(=N)N)cc1)c1ccccc1 (stereo unspecified) yielded log10(IC50) of 1.40

log10(IC50) reported for this molecule CC(C)(/C=C/C(=O)c1ccc(C(=N)N)cc1)C(=O)N1CCC(CC(=O)O)CC1 : 1.56

response.value for CN(C(=O)c1ccc(C(=N)N)cc1)C(c1ccccc1)C(C)(C)C(=O)N1CCC(CC(=O)O)CC1 (stereo unspecified) (field: log10(IC50)) = 1.33

Notebook: C/C=C/C(NC(=O)c1ccc(C(=N)N)cc1)C(C)(C)C(=O)N1CCC(CC(=O)O)CC1 (stereo unspecified) , log10(IC50) read as 1.11

The molecule identified as CC(C)CC(NC(=O)c1ccc(C(=N)N)cc1)C(C)(C)C(=O)N1CCC(CC(=O)O)CC1 (stereo unspecified) registered its log10(IC50) at 0.43

GET /value?item= CC(C)(C(=O)N1CCC(CC(=O)O)CC1)C(CCc1ccccc1)NC(=O)c1ccc(C(=N)N)cc1 (stereo unspecified) &field=log10(IC50) returns 1.67

Recorded result, CC(C)(C(=O)N1CCC(CC(=O)O)CC1)C(NC(=O)c1ccc(C(=N)N)cc1)c1ccc2ccccc2c1 (stereo unspecified) , log10(IC50): 1.32

* * *

Experimental protocol: Elimination T1/2 in Guinea pig (IV dose)
Measurement parameters: in vivo, read-out: T1/2 beta
Assignment: determine reported half-life for the given molecules.
Form entry: value (h) — number only.

Kindly note the recorded half-life for CCOC(=O)CC1CCN(C(=O)C(C)(C)C(CC)NC(=O)c2ccc(C(=N)N)cc2F)CC1 (centres undefined) , which is 1.48

CC(C)CC(NC(=O)c1ccc(C(=N)N)cc1)C(C)(C)C(=O)N1CCC(CC(=O)O)CC1 (centres undefined) yielded half-life of 0.917

Reported half-life for CCCCC(NC(=O)c1ccc(C(=N)N)cc1)C(C)(C)C(=O)N1CCC(CC(=O)O)CC1 (centres undefined) was 1.03

Form field half-life, entry CC(C)(C(=O)N1CCC(CC(=O)O)CC1)C(NC(=O)c1ccc(C(=N)N)cc1Cl)c1ccccc1 (centres undefined) : 1.25

Recorded half-life (molecule CCC(NC(=O)c1ccc(C(=N)N)cc1F)C(C)(C)C(=O)N1CCC(CC(=O)O)CC1 (centres undefined) ): 1.48

half-life measured on CC(C)(C(=O)N1CCC(CC(=O)O)CC1)C(NC(=O)c1ccc(C(=N)N)cc1)c1ccc(O)cc1 (centres undefined) = 1.05

GET /value?item= CC(C)(C(=O)N1CCC(CC(=O)O)CC1)C(NC(=O)c1ccc(C(=N)N)cc1)c1cccc(O)c1 (centres undefined) &field=half-life returns 1.08

The measured half-life associated with CCCCCC(NC(=O)c1ccc(C(=N)N)cc1)C(C)(C)C(=O)N1CCC(CC(=O)O)CC1 (centres undefined) reads 0.517

The recorded half-life for entry CCCCC(NC(=O)c1ccc(C(=N)N)cc1F)C(C)(C)C(=O)N1CCC(CC(=O)O)CC1 (centres undefined) equals 1.3

Value of measured half-life for the entry CCCC(NC(=O)c1ccc(C(=N)N)cc1)C(C)(C)C(=O)N1CCC(CC(=O)O)CC1 (centres undefined) : 0.9

Query CCC(NC(=O)c1ccc(C(=N)N)cc1)C(C)(C)C(=O)N1CCC(CC(=O)O)CC1 (centres undefined) yields half-life of 1.3

Memo: C#CCN(C(=O)c1ccc(C(=N)N)cc1)C(CCCC)C(C)(C)C(=O)N1CCC(CC(=O)O)CC1 (centres undefined) , reported half-life: 1.5

half-life reading for CC(C)(C(=O)N1CCC(CC(=O)O)CC1)C(CCc1ccccc1)NC(=O)c1ccc(C(=N)N)cc1 (centres undefined) : 0.767

Sample CCOC(=O)CC1CCN(C(=O)C(C)(C)C(CC)NC(=O)c2ccc(C(=N)N3CCN(C)CC3)cc2F)CC1 (centres undefined) ; half-life observed: 1.77

Sample CC(C)(C(=O)N1CCC(CC(=O)O)CC1)C(NC(=O)c1ccc(C(=N)N)cc1)c1ccc(Cl)cc1 (centres undefined) ; half-life observed: 1.2

Memo: C/C=C/C(NC(=O)c1ccc(C(=N)N)cc1)C(C)(C)C(=O)N1CCC(CC(=O)O)CC1 (centres undefined) , reported half-life: 0.933

half-life in this record for CCOC(=O)CC1CCN(C(=O)C(C)(C)C(CC)NC(=O)c2ccc(C(=N)N3CCC(O)CC3)cc2F)CC1 (centres undefined) : 3.5

Briefly, half-life measured for CN(C(=O)c1ccc(C(=N)N)cc1)C(c1ccccc1)C(C)(C)C(=O)N1CCC(CC(=O)O)CC1 (centres undefined) : 1.42

Kindly note the recorded half-life for CC(C)(C(=O)N1CCC(CC(=O)O)CC1)C(NC(=O)c1ccc(C(=N)N)cc1)c1cccc(Cl)c1 (centres undefined) , which is 2.5

* * *

Please respond with reported Tmax for every item in the list.
Experimental protocol: Tmax in rat (PO dose)
Measurement parameters: in vivo
Unit h implied. Number only.

compound CCOC(=O)CC1CCN(C(=O)C(C)(C)C(CC)NC(=O)c2ccc(C(=N)N3CCN(C)CC3)cc2F)CC1 (configuration not stated) , Tmax observed: 2

Tmax measured on CCOC(=O)CC1CCN(C(=O)C(C)(C)C(CC)NC(=O)c2ccc(C(=N)N)cc2F)CC1 (configuration not stated) = 0.5

For record CCOC(=O)CC1CCN(C(=O)C(C)(C)C(CC)NC(=O)c2ccc(C(=N)N3CCCC3)cc2F)CC1 (configuration not stated) the listed Tmax is 1

The reported Tmax of the compound CCOC(=O)CC1CCN(C(=O)C(C)(C)C(CC)NC(=O)c2ccc(C(=N)N3CCC(O)CC3)cc2F)CC1 (configuration not stated) was 1

Value of Tmax reported for the compound CCOC(=O)CC1CCN(C(=O)C(C)(C)C(CC)NC(=O)c2ccc(C(=N)N3CCOCC3)cc2F)CC1 (configuration not stated) is 0.5

Lab note: measured Tmax of CCOC(=O)CC1CCN(C(=O)C(C)(C)C(CC)NC(=O)c2ccc(C(=N)N3CCN(c4ccc(F)cc4)CC3)cc2F)CC1 (configuration not stated) was 1

get_value(item= CCOC(=O)CC1CCN(C(=O)C(C)(C)C(CC)NC(=O)c2ccc(C(=N)N3CCSC3)cc2F)CC1 (configuration not stated) , readout=Tmax) returns 0.5
